STUDY TARGET: GRP receptors on Swiss 3T3 cells (Mus musculus, UniProt P21729)
Construct: conducted in 24-well tissue culture plates (GIBCO) using Swiss 3T3 cells; endogenous in cells
Sequence (P21729 whole entry): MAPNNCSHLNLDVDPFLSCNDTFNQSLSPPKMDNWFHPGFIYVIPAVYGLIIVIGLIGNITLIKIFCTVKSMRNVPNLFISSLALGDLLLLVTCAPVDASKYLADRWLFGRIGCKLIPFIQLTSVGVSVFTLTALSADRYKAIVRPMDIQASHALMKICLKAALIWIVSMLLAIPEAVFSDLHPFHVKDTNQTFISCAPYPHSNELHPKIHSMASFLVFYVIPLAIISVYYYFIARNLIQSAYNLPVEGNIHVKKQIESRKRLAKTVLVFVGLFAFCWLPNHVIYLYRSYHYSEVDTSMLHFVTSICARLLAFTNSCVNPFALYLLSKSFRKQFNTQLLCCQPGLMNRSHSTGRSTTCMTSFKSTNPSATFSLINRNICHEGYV
ASSAY METHOD TEXT: Receptor binding assay: displacement of 125I-GRP(14-27) on Swiss 3T3 cells
SETUP CONDITIONS: 0.2 nM 125I-GRP(14-27), Swiss 3T3 cells, 37° C. 30 min
pKd: −log10 of the molar value.
OBSERVED PROPERTY: pKd

Please review the entries below; each comes with its answer.
Ask | For the compound CC(C)C[C@@H](CN1Cc2[nH]c3ccccc3c2C[C@H]1C(N)=O)NC(=O)[C@H](Cc1c[nH]cn1)NC(=O)CNC(=O)[C@@H](NC(=O)[C@H](C)NC(=O)[C@H](Cc1c[nH]c2ccccc12)NC(=O)[C@H](CCC(N)=O)NC(=O)[C@H](N)Cc1ccccc1)C(C)C [Peptide 17] , give its reported pKd.
Reply | 9.00

Ask | For the compound CC(C)C[C@@H](CN1Cc2[nH]c3ccccc3c2C[C@H]1C(N)=O)NC(=O)[C@H](Cc1c[nH]cn1)NC(=O)CNC(=O)[C@@H](NC(=O)[C@H](C)NC(=O)[C@H](Cc1c[nH]c2ccccc12)NC(=O)[C@H](CCC(N)=O)NC(=O)[C@H](N)Cc1c[nH]c2ccccc12)C(C)C [Peptide 18] , give its reported pKd.
Reply | 8.40

Ask | For the compound CC(C)C[C@@H](CN[C@@H](Cc1c[nH]c2ccccc12)C(N)=O)NC(=O)[C@H](Cc1c[nH]cn1)NC(=O)CNC(=O)[C@@H](NC(=O)[C@H](C)NC(=O)[C@H](Cc1c[nH]c2ccccc12)NC(=O)[C@H](CCC(N)=O)NC(=O)[C@H](N)Cc1c[nH]c2ccccc12)C(C)C [Peptide 29] , give its reported pKd.
Reply | 6.28

Ask | For the compound CNC(=O)CC[C@H](NC(=O)[C@H](N)Cc1c[nH]c2ccccc12)C(=O)N[C@@H](Cc1c[nH]c2ccccc12)C(=O)N[C@@H](C)C(=O)N[C@H](C(=O)NCC(=O)N[C@@H](Cc1c[nH]cn1)C(=O)N[C@H](CN[C@@H](Cc1ccccc1)C(N)=O)CC(C)C)C(C)C [Peptide 11] , give its reported pKd.
Reply | 8.30

Ask | For the compound CC(C)C[C@@H](CN1Cc2[nH]c3ccccc3c2C[C@H]1C(N)=O)NC(=O)[C@H](Cc1c[nH]cn1)NC(=O)CNC(=O)[C@@H](NC(=O)[C@H](C)NC(=O)[C@H](Cc1c[nH]c2ccccc12)NC(=O)[C@H](CCC(N)=O)NC(=O)[C@H]1Cc2c([nH]c3ccccc23)CN1)C(C)C [Peptide 26] , give its reported pKd.
Reply | 7.66

A. CC(C)C[C@@H](CN[C@@H](Cc1ccccc1)C(N)=O)NC(=O)[C@H](Cc1c[nH]cn1)NC(=O)CNC(=O)[C@@H](NC(=O)[C@H](C)NC(=O)[C@H](Cc1c[nH]c2ccccc12)NC(=O)[C@H](CCC(N)=O)NC(=O)[C@H](N)Cc1c[nH]c2ccccc12)C(C)C [Peptide 10]
B. CC(C)C[C@@H](CN[C@@H](Cc1c[nH]c2ccccc12)C(N)=O)NC(=O)[C@H](Cc1c[nH]cn1)NC(=O)CNC(=O)[C@@H](NC(=O)[C@H](C)NC(=O)[C@H](Cc1c[nH]c2ccccc12)NC(=O)[C@H](CCC(N)=O)NC(=O)[C@H](N)Cc1ccccc1)C(C)C [Peptide 28]
Ask | Compare reported pKd values for A and B . Which is lower? Choose, then provide that item's label.
Reply | B
